Just for reference, the supplement of paper PMC6755084 is where these values come from.

B1: minF1; the commonest letter at each place (parent)
chain: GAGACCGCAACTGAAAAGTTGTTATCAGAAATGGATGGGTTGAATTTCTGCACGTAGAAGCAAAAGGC

- Variants of: B1
- TEST SUMMARY: fraction ligated after 30 min (ligated reads / total reads); higher = more ligase activity
- CONDITION CONTEXT: with F1*subA RNA substrate (template-directed ligation), 42 °C
Definition: the class of an entry is the range in class 1 (below 0.006), class 2 (0.006 to below 0.03), class 3 (0.03 or more) that contains its fraction ligated.

Any idea which band GAGACCGCAACTGAAAAGTTGTTATCAGAAATGAATGGGTTTAATTTCTGCACGTAGAAGCAAAAGGC [G34A G42T] is in?
class 1

Any idea which band GAGACCGCAACTGAAAAGTTGTCATTAGAAATGGATGGGTTGAATTTCTGCACGTAGAAGCAAAAGGC [T23C C26T] is in?
class 2

Any idea which band GAGACCGCAACTGAAAAGTTGTTATAAGAAAGGGATGGGTTGAATTTCTGCACGTAGAAGCAAAAGGC [C26A T32G] is in?
class 1

Any idea which band GAGACCGCAACTGAAAAGTTGTTATGAAAAATGGATGGGTTGAATTTCTGCACGTAGAAGCAAAAGGC [C26G G28A] is in?
class 2

Any idea which band GAGACCGCAACTGAAAAGTTGTTATCAGAGTTGGATGGGTTGAATTTCTGCACGTAGAAGCAAAAGGC [A30G A31T] is in?
class 3

Any idea which band GAGACCGCAACTGAAAAGTTGTTAACAGAAATGGATGGGTTCAATTTCTGCACGTAGAAGCAAAAGGC [T25A G42C] is in?
class 1

Any idea which band GAGACCGCAACTGAAAAGTTGTTATCAGAAATGGACGGGTTGATTTTCTGCACGTAGAAGCAAAAGGC [T36C A44T] is in?
class 2

Any idea which band GAGACCGCAACTGAAAAGTTGTTACCAGAAATGAATGGGTTGAATTTCTGCACGTAGAAGCAAAAGGC [T25C G34A] is in?
class 2

Any idea which band GAGACCGCAACTGAAAAGTTGTTATCAGAACTTGATGGGTTGAATTTCTGCACGTAGAAGCAAAAGGC [A31C G33T] is in?
class 3

Any idea which band GAGACCGCAACTGAAAAGTTGTTATCAGACATGGATGGGTTGTATTTCTGCACGTAGAAGCAAAAGGC [A30C A43T] is in?
class 3

Any idea which band GAGACCGCAACTGAAAAGTTGTTATGAGAAATGGGTGGGTTGAATTTCTGCACGTAGAAGCAAAAGGC [C26G A35G] is in?
class 1

Any idea which band GAGACCGCAACTGAAAAGTTGTTATCAGGAAGGGATGGGTTGAATTTCTGCACGTAGAAGCAAAAGGC [A29G T32G] is in?
class 2

Any idea which band GAGACCGCAACTGAAAAGTTGTTTTCAGAAATAGATGGGTTGAATTTCTGCACGTAGAAGCAAAAGGC [A24T G33A] is in?
class 2

Any idea which band GAGACCGCAACTGAAAAGTTGTTATCAGAAATGGATCGGTTGTATTTCTGCACGTAGAAGCAAAAGGC [G37C A43T] is in?
class 1

Any idea which band GAGACCGCAACTGAAAAGTTGTTATAAGAAATGGACGGGTTGAATTTCTGCACGTAGAAGCAAAAGGC [C26A T36C] is in?
class 2

Any idea which band GAGACCGCAACTGAAAAGTTGTTATCATAAATGGACGGGTTGAATTTCTGCACGTAGAAGCAAAAGGC [G28T T36C] is in?
class 2

Any idea which band GAGACCGCAACTGAAAAGTTGTTATGAGATATGGATGGGTTGAATTTCTGCACGTAGAAGCAAAAGGC [C26G A30T] is in?
class 3

Any idea which band GAGACCGCAACTGAAAAGTTGTTATCAAATATGGATGGGTTGAATTTCTGCACGTAGAAGCAAAAGGC [G28A A30T] is in?
class 3

Any idea which band GAGACCGCAACTGAAAAGTTGTTATCAGAAATCGAAGGGTTGAATTTCTGCACGTAGAAGCAAAAGGC [G33C T36A] is in?
class 2

Any idea which band GAGACCGCAACTGAAAAGTTGTTATCAGAATTGGATGGGTTGCATTTCTGCACGTAGAAGCAAAAGGC [A31T A43C] is in?
class 3

Any idea which band GAGACCGCAACTGAAAAGTTGTTATAAGAACTGGATGGGTTGAATTTCTGCACGTAGAAGCAAAAGGC [C26A A31C] is in?
class 3

Any idea which band GAGACCGCAACTGAAAAGTTGTTATGAGAAATGGAAGGGTTGAATTTCTGCACGTAGAAGCAAAAGGC [C26G T36A] is in?
class 1

Any idea which band GAGACCGCAACTGAAAAGTTGTTATCAGAATTAGATGGGTTGAATTTCTGCACGTAGAAGCAAAAGGC [A31T G33A] is in?
class 3

Any idea which band GAGACCGCAACTGAAAAGTTGTTATCATAAAAGGATGGGTTGAATTTCTGCACGTAGAAGCAAAAGGC [G28T T32A] is in?
class 3

Any idea which band GAGACCGCAACTGAAAAGTTGTTTTCACAAATGGATGGGTTGAATTTCTGCACGTAGAAGCAAAAGGC [A24T G28C] is in?
class 3

Any idea which band GAGACCGCAACTGAAAAGTTGTTATCAGAAATTGATGGGTTCAATTTCTGCACGTAGAAGCAAAAGGC [G33T G42C] is in?
class 2

Any idea which band GAGACCGCAACTGAAAAGTTGTTATCAGAAATGGATCGGTTTAATTTCTGCACGTAGAAGCAAAAGGC [G37C G42T] is in?
class 1

Any idea which band GAGACCGCAACTGAAAAGTTGTTATAAGAAATGGATAGGTTGAATTTCTGCACGTAGAAGCAAAAGGC [C26A G37A] is in?
class 1

Any idea which band GAGACCGCAACTGAAAAGTTGTTGTCAGAACTGGATGGGTTGAATTTCTGCACGTAGAAGCAAAAGGC [A24G A31C] is in?
class 2

Any idea which band GAGACCGCAACTGAAAAGTTGTCTTCAGAAATGGATGGGTTGAATTTCTGCACGTAGAAGCAAAAGGC [T23C A24T] is in?
class 2

Any idea which band GAGACCGCAACTGAAAAGTTGTTATCAGAAATGGGTGGGTTCAATTTCTGCACGTAGAAGCAAAAGGC [A35G G42C] is in?
class 1

Any idea which band GAGACCGCAACTGAAAAGTTGTTGTCAGAAATGGAAGGGTTGAATTTCTGCACGTAGAAGCAAAAGGC [A24G T36A] is in?
class 2

Any idea which band GAGACCGCAACTGAAAAGTTGTTTTCAGAAATGGATGGGTTTAATTTCTGCACGTAGAAGCAAAAGGC [A24T G42T] is in?
class 1

Any idea which band GAGACCGCAACTGAAAAGTTGTTAGCAGAAATGGATGGGTTGACTTTCTGCACGTAGAAGCAAAAGGC [T25G A44C] is in?
class 1
